Origin of the recorded values: the supplement of paper PMC6555819

# Test system: PPARg:RXRa 270nM:90nM, anti-RXR (NR concentration 270 nM, RXRa partner concentration 90 nM)
# Test name: PBM binding z-score (relative to random genomic background probes); higher = stronger binding; sequences stand for … in GC…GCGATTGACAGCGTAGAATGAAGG
Each record gets a class by PBM binding z-score: lo (below 0.3), med (0.3 to below 3), hi (3 or more)

Band assignment needed for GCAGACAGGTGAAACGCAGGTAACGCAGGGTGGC please.
lo

Band assignment needed for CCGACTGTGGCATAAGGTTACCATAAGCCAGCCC please.
med

Band assignment needed for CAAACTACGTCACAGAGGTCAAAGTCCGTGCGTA please.
hi

Band assignment needed for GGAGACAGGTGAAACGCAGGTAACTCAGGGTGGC please.
lo

Band assignment needed for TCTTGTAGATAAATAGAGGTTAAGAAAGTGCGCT please.
med

Band assignment needed for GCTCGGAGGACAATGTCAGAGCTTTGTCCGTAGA please.
lo

Band assignment needed for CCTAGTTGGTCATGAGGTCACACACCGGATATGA please.
hi

Band assignment needed for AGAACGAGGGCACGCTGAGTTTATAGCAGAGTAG please.
med

Band assignment needed for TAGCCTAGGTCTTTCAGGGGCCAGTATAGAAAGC please.
lo

Band assignment needed for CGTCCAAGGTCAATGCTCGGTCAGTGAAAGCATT please.
hi

Band assignment needed for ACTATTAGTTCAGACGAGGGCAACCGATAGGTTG please.
lo

Band assignment needed for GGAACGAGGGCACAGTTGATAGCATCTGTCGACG please.
hi

Band assignment needed for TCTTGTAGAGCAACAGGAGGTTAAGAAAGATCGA please.
med

Band assignment needed for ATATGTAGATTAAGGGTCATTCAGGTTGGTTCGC please.
hi

Band assignment needed for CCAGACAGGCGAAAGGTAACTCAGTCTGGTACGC please.
med

Band assignment needed for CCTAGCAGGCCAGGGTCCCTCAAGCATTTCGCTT please.
lo

Band assignment needed for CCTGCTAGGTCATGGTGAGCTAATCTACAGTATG please.
med

Band assignment needed for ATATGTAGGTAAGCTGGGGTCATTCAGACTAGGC please.
hi

Band assignment needed for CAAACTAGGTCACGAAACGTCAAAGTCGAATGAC please.
hi

Band assignment needed for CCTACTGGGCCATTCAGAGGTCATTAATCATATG please.
med

Band assignment needed for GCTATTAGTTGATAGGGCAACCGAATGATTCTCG please.
med

Band assignment needed for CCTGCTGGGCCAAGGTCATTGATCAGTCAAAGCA please.
med

Band assignment needed for ATCTCTAGGTAACCAAGTTCCGTGAATGCCGAAC please.
med

Band assignment needed for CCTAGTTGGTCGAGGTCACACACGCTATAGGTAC please.
hi

Band assignment needed for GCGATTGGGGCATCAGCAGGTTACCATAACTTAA please.
lo

Band assignment needed for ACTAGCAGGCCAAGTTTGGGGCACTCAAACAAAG please.
lo

Band assignment needed for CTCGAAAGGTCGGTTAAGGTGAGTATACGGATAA please.
med

Band assignment needed for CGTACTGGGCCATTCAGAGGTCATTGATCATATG please.
hi

Band assignment needed for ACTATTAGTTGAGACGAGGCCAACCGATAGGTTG please.
lo

Band assignment needed for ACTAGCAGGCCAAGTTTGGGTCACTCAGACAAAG please.
lo

Band assignment needed for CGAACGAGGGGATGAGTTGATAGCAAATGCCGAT please.
lo

Band assignment needed for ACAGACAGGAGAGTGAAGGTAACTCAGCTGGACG please.
med

Band assignment needed for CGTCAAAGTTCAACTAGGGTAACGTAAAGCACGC please.
hi

Band assignment needed for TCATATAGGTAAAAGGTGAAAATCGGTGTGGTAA please.
hi

Band assignment needed for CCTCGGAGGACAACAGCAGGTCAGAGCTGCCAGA please.
lo

Band assignment needed for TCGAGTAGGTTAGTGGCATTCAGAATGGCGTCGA please.
med

Band assignment needed for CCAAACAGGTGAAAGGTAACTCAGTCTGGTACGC please.
hi

Band assignment needed for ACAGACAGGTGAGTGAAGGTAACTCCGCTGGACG please.
lo

Band assignment needed for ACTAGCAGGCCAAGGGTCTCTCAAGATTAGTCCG please.
hi

Band assignment needed for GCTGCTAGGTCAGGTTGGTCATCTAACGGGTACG please.
med

Band assignment needed for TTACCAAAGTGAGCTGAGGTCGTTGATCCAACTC please.
lo

Band assignment needed for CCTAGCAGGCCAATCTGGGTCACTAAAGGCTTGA please.
med

Band assignment needed for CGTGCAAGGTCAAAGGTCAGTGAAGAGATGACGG please.
hi

Band assignment needed for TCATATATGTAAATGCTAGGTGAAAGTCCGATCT please.
med

Band assignment needed for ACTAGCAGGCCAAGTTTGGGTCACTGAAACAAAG please.
med

Band assignment needed for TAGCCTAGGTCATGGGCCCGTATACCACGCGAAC please.
hi

Band assignment needed for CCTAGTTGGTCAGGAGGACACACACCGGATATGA please.
lo

Band assignment needed for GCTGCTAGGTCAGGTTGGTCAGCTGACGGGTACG please.
med

Band assignment needed for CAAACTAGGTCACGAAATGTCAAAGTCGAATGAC please.
hi

====

# Test system: PPARa:RXRa (NR concentration 270 nM, RXRa partner concentration 90 nM)
# Test name: PBM binding z-score (relative to random genomic background probes); higher = stronger binding; sequences stand for … in GC…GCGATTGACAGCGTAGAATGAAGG
Quick rule: PBM binding z-score of at least 2 means met, below that means not met.

Exam item: decide whether the reported PBM binding z-score for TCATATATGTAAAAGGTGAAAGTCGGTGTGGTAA is at least 2.
met

Exam item: decide whether the reported PBM binding z-score for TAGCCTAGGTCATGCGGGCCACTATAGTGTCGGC is at least 2.
met

Exam item: decide whether the reported PBM binding z-score for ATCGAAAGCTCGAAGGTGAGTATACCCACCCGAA is at least 2.
not met

Exam item: decide whether the reported PBM binding z-score for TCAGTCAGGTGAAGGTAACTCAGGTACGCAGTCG is at least 2.
not met

Exam item: decide whether the reported PBM binding z-score for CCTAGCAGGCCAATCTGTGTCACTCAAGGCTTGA is at least 2.
not met

Exam item: decide whether the reported PBM binding z-score for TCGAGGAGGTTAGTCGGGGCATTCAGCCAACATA is at least 2.
not met

Exam item: decide whether the reported PBM binding z-score for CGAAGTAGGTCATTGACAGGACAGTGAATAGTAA is at least 2.
met

Exam item: decide whether the reported PBM binding z-score for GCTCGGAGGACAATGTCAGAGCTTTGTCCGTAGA is at least 2.
not met

Exam item: decide whether the reported PBM binding z-score for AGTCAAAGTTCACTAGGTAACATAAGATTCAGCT is at least 2.
met

Exam item: decide whether the reported PBM binding z-score for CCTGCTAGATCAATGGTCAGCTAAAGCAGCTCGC is at least 2.
not met

Exam item: decide whether the reported PBM binding z-score for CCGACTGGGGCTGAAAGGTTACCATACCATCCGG is at least 2.
not met

Exam item: decide whether the reported PBM binding z-score for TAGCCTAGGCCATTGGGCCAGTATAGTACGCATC is at least 2.
not met

====

# Tested on: RARb homodimer (NR concentration 270 nM)
# Test name: PBM binding z-score (relative to random genomic background probes); higher = stronger binding; sequences stand for … in GC…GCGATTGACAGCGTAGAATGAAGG
For each of the sequences below, state its PBM binding z-score.

Enter PBM binding z-score (test system RARb homodimer (NR concentration 270 nM)) for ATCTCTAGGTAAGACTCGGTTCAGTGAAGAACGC
0.578

Enter PBM binding z-score (test system RARb homodimer (NR concentration 270 nM)) for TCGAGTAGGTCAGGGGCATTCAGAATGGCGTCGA
2.9

Enter PBM binding z-score (test system RARb homodimer (NR concentration 270 nM)) for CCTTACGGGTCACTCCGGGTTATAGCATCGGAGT
2.96

Enter PBM binding z-score (test system RARb homodimer (NR concentration 270 nM)) for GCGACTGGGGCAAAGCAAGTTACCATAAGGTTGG
0.158

Enter PBM binding z-score (test system RARb homodimer (NR concentration 270 nM)) for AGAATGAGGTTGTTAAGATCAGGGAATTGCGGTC
0.126

Enter PBM binding z-score (test system RARb homodimer (NR concentration 270 nM)) for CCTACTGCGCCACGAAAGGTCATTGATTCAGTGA
4.75

====

# Tested on: RARg homodimer (NR concentration 270 nM)
# Test name: PBM binding z-score (relative to random genomic background probes); higher = stronger binding; sequences stand for … in GC…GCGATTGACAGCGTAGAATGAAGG
Quick rule: PBM binding z-score of at least 0.4 means Met, below that means Not met.

Exam item: decide whether the reported PBM binding z-score for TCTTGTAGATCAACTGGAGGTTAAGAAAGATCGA is at least 0.4.
Not met

Exam item: decide whether the reported PBM binding z-score for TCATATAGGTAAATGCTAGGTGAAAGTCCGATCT is at least 0.4.
Met

Exam item: decide whether the reported PBM binding z-score for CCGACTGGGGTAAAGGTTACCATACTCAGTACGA is at least 0.4.
Met

Exam item: decide whether the reported PBM binding z-score for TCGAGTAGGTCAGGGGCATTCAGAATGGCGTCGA is at least 0.4.
Met

Exam item: decide whether the reported PBM binding z-score for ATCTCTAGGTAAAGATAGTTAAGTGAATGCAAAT is at least 0.4.
Met

Exam item: decide whether the reported PBM binding z-score for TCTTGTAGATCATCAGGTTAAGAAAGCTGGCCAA is at least 0.4.
Not met
